- subject_of_test: neutrophil collagenase (MMP-8) (Homo sapiens, UniProt P22894)
- Construct: catalytic domain of human stromelysin and of neutrophil collagenase
- Sequence (P22894 100-262 limits assumed): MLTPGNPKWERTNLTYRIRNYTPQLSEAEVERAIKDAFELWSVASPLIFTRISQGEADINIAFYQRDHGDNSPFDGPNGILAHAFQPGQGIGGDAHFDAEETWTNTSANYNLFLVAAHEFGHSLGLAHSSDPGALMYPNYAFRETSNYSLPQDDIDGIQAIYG
- measurement_protocol: Enzymatic activity of the catalytic domain of neutrophil collagenase, fluorogenic substrate
- experimental_setup: pH 6.5, 15 min preincubation
pIC50: −log10 of the molar value.
assay_metric: pIC50

Prompt line: Returns the measured pIC50 for the input compound. Input: CCOP(=O)(O)C(NS(=O)(=O)c1ccc(-c2ccc(Cl)cc2)cc1)c1ccccc1 (racemic) [Example 2]
Response line: 6.70

[P] CC(C)[C@H](NS(=O)(=O)c1ccc(-c2ccc(Cl)cc2)cc1)P(=O)(O)O [Example 1]
[Q] CC(C)[C@H](NS(=O)(=O)CCc1ccc(-c2ccc(Cl)cc2)cc1)P(=O)(O)O [Example 25]
[R] CC(C)[C@@H](NS(=O)(=O)c1ccc(-c2ccc(Cl)cc2)cc1)P(=O)(O)O [Example 18]
Prompt line: Could you please order the items by pIC50, going from the lowest number to the highest? Provide the labels, sequenced as the question asks.
Response line: R, Q, P

* * *

- subject_of_test: neutrophil collagenase (MMP-8) (Homo sapiens, UniProt P22894)
- Construct: catalytic domain of human stromelysin and of neutrophil collagenase; made in house
- measurement_protocol: Enzymatic activity of the catalytic domain of neutrophil collagenase, fluorogenic substrate
- Format: biochemical
- experimental_setup: pH 6.5, 15 min preincubation
- Method: Preparation and determination of the enzymatic activity of the catalytic domain of human stromelysin and of neutrophil collagenase. The two enzymes—stromelysin (“MMP-3”) and neutrophil collagenase (“MMP-8”)—were prepared according to Ye et al., 31 BIOCHEMISTRY 11231 (1992). […] After addition of 10 μl of a 10% strength (v/v) aqueous dimethyl sulfoxide solution which contains 1 mmol/l of the substrate, the enzyme reaction is monitored by fluorescence spectroscopy (328 nm (ex)/393 nm(em)). […]
assay_metric: IC50 (nM)

[I] CC(C)CC(NS(=O)(=O)c1ccc(-c2ccc(Cl)cc2)cc1)P(=O)(O)O (racemic)
[II] CCCCOc1ccc(S(=O)(=O)N[C@@H](C(C)C)P(=O)(O)O)cc1
[III] CC(NS(=O)(=O)c1ccc(-c2ccc(N3CCCC3)cc2)cc1)P(=O)(O)O (stereo not shown)
[IV] CC(C)[C@H](NS(=O)(=O)c1ccc(-c2ccc(N3CCCC3)cc2)cc1)P(=O)(O)O
Prompt line: Ascending by IC50, please: list the compounds accordingly. Provide the labels, sequenced as the question asks.
Response line: IV, I, III, II
(IV: 2 nM, I: 3 nM, III: 20 nM, II: 30 nM)

* * *

- subject_of_test: stromelysin (MMP-3) (Homo sapiens, UniProt P08254)
- Sequence (P08254 100-272 limits assumed): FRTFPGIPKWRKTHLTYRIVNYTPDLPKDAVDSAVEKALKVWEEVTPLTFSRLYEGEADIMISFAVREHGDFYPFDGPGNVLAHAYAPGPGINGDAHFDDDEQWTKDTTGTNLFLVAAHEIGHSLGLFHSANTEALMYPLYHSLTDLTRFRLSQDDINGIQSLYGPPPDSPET
pIC50: −log10 of the molar value.
assay_metric: pIC50

Prompt line: Returns the measured pIC50 for the input compound. Input: CCOP(=O)(O)C(NS(=O)(=O)c1ccc(-c2ccc(Cl)cc2)cc1)c1ccccc1 (racemic)
Response line: 5.30

[A] CCCCOc1ccc(S(=O)(=O)N[C@@H](C(C)C)P(=O)(O)O)cc1
[B] CC(C)[C@@H](NS(=O)(=O)c1ccc(-c2ccc(Cl)cc2)cc1)P(=O)(O)O
Prompt line: Could you tell me which of A and B has the lower pIC50 reading? Please reply using the label of the selected record.
Response line: B
(B: 5.00, A: 6.40)

* * *

- subject_of_test: neutrophil collagenase (MMP-8) (Homo sapiens)
- Construct: catalytic domain of human stromelysin and of neutrophil collagenase
- measurement_protocol: Enzymatic activity of the catalytic domain of neutrophil collagenase, fluorogenic substrate
- experimental_setup: pH 6.5, 15 min preincubation
pIC50: −log10 of the molar value.
assay_metric: pIC50

[1] CC(NS(=O)(=O)CCc1ccc(-c2ccc(Cl)cc2)cc1)P(=O)(O)O (stereo not shown)
[2] O=P(O)(O)C(NS(=O)(=O)c1ccc(-c2ccc(Cl)cc2)cc1)c1ccccc1 (racemic)
Prompt line: // compare measured pIC50, left 1 , right 2 , return larger Please reply using the label of the selected record.
Response line: 1

[a] O=P(O)(O)C(Cc1c[nH]c2ccccc12)NS(=O)(=O)c1ccc(-c2ccc(Cl)cc2)cc1 (racemic)
[b] CC(NS(=O)(=O)c1ccc(-c2ccc(Cl)cc2)cc1)P(=O)(O)O (racemic)
Prompt line: Could you tell me which of a and b has the lower pIC50 reading? Please reply using the label of the selected record.
Response line: a

* * *

- subject_of_test: stromelysin (MMP-3) (Homo sapiens, UniProt P08254)
pIC50: −log10 of the molar value.
assay_metric: pIC50

Use the examples below as a reference point.
Prompt line: Returns the measured pIC50 for the input molecule. Input: CC(NS(=O)(=O)c1ccc(-c2ccc(Cl)cc2)cc1)P(=O)(O)O (racemic)
Response line: 7.00

Prompt line: Next up: CC(C)[C@H](NS(=O)(=O)CCc1ccc(-c2ccc(Cl)cc2)cc1)P(=O)(O)O
Response line: 8.52

[a] O=P(O)(O)C(NS(=O)(=O)c1ccc(-c2ccc(Cl)cc2)cc1)c1ccccc1 (racemic)
[b] CC(C)CC(NS(=O)(=O)c1ccc(-c2ccc(Cl)cc2)cc1)P(=O)(O)O (racemic)
Prompt line: // compare measured pIC50, left a , right b , return larger Please reply using the label of the selected record.
Response line: b
(b: 7.52, a: 7.00)
